Hello, the source for this data is patent US20170088624A1, in case you need it.

Give measured EC50, agonistic activity on HEK-Blue™ CD40L cells (NF-κB/SEAP) for each item. Keep answers brief.
Target: Full length human CD40 (huCD40) on cells (human, UniProt P25942 21-277)
Sequence (P25942 21-277): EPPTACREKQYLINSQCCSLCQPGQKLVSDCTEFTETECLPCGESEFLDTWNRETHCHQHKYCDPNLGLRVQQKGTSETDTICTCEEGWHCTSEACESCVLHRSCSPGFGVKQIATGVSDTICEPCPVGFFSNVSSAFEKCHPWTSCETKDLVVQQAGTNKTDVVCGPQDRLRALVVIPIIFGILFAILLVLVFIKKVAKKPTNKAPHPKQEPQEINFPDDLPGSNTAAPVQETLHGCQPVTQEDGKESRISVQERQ
Test: cell-based or functional assay
Lab book: enter the figure in µg/mL, no units written.

The measured EC50, agonistic activity on HEK-Blue™ CD40L cells (NF-κB/SEAP) associated with C40M103 (antibody, human IgG1, lambda, V domains shown, Variant of C40M18 (VH C40H48, VL C40L69; LCDR1 cysteine mutated); cloned as IgG1) VH: EVQLVESGGGLVQPGGSLRLSCAASGFTFSSYAMSWVRQAPGKGLEWVSIINNNVGRTYYADSVKGRFTISRDNSKNTLYLQMNSLRAEDTAVYYCAKEGGDYYYYGMDVWGQGTTVTVSS VL: SYELTQPPSVSVSPGQTASITCSGDKLGDKYVSWYQQKPGQSPVLVIYQDSKRPSGIPERFSGSNSGNTATLTISGTQAMDEADYYCQAWVSSTVVFGGGTKLTVLG reads 0.00274

The measured EC50, agonistic activity on HEK-Blue™ CD40L cells (NF-κB/SEAP) associated with C40M9 (antibody, human IgG1, lambda, V domains shown) VH: QLQLQESGPGLVKPSEILSLTCTVSGGSISSSSYYWGWIRQPPGKGLEWIGNIYYRGDTYYSPSLKSRVTISVDTSKNQFSLKLNSVTAADTAVYYCAKGFRFDYWGQGTLVTVSS VL: QSALTQPPSASGSPGQSVTISCTGTSSDVGGYNYVSWYQQHPGKAPKLMIYEVSKRPSGVPDRFSGSKSGNTASLTVSGLQAEDEADYYCSSYAGSNNLVFGGGTKLTVLG reads 0.0138

The measured EC50, agonistic activity on HEK-Blue™ CD40L cells (NF-κB/SEAP) associated with C40M105 (antibody, human IgG1, lambda, V domains shown) VH: QLQLQESGPGLVKPSETLSLTCTVSGGSISSSSYYWGWIRQPPGKGLEWIGNIYYRGDTYYSPSLKSRVTISVDTSKNQFSLKLSSVTAADTAVYYCARGFRFDYWGQGTLVTVSS VL: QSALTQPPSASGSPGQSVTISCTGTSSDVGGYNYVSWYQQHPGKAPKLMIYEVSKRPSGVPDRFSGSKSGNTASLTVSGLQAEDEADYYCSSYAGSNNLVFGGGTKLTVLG reads 0.0173

The measured EC50, agonistic activity on HEK-Blue™ CD40L cells (NF-κB/SEAP) associated with C40M104 (antibody, human IgG1, lambda, V domains shown, Variant of C40M18 (VH C40H48, VL C40L68; LCDR1 cysteine mutated); cloned as IgG1) VH: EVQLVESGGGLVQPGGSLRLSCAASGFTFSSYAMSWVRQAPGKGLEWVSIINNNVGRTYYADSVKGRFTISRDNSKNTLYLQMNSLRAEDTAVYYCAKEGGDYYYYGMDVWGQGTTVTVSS VL: SYELTQPPSVSVSPGQTASITCSGDKLGDKYVSWYQQKPGQSPVVVIYQDSKRPSGIPERFSGSNSGNTATLTISGTQAMDEAYYYCQAWVSSTVVFGGGTKLTVLG reads 0.0308
